molecular target: Pim-2 (Homo sapiens (Human))
Sequence (Q9P1W9 whole entry): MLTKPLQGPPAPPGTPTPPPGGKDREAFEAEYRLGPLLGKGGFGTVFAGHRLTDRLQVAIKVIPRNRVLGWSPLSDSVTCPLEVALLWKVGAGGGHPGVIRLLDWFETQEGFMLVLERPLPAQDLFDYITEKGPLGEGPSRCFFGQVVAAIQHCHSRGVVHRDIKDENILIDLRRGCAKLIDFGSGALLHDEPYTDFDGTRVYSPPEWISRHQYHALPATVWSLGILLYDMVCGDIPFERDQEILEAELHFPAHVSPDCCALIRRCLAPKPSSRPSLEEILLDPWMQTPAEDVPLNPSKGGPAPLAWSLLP

| Compound | IC50 |
| --- | --- |
| C[C@H]1CN(c2ccncc2NC(=O)c2c(N)oc3cc(Cl)cnc23)C[C@@H](N)[C@@H]1O [Example 66] | 10 to 100 nM |
| Cn1ncc(NC(=O)c2c(N)sc3cccnc23)c1N1CCC[C@H](N)C1 [Example 2] | 100 to 1000 nM |
| Cc1ccnc2c(C(=O)Nc3cnccc3N3CCC[C@H](N)C3)c(N)oc12 [Example 55] | > 2000 nM |
| Nc1oc2cc(CN3CC[C@H](F)C3)cnc2c1C(=O)Nc1cnccc1N1C[C@@H](N)C[C@@H](C(F)(F)F)C1 [Example 106] | 10 to 100 nM |
| CC(C)Oc1cnc2c(C(=O)Nc3cnccc3N3C[C@H](C)C[C@H](N)C3)c(N)oc2c1 [Example 121] | 10 to 100 nM |
| C[C@H]1CN(c2ccncc2NC(=O)c2c(N)sc3cc(NC(=O)C4CC4)cnc23)C[C@@H](N)[C@@H]1O [Example 142] | 10 to 100 nM |
| C[C@@H]1C[C@H](N)CN(c2sncc2NC(=O)c2c(N)oc3cc(C4CCOCC4)cnc23)C1 [Example 96] | 10 to 100 nM |
| Nc1sc2c(C(F)(F)F)ccnc2c1C(=O)Nc1cnccc1N1CCC[C@H](N)C1 [Example 38] | 100 to 1000 nM |
| Nc1sc2cc(-c3c(F)cccc3F)cnc2c1C(=O)Nc1cnccc1N1CCC[C@H](N)C1 [Example 26] | 10 to 100 nM |
| CCc1cnc2c(C(=O)Nc3cnccc3N3CCC[C@H](N)C3)c(N)oc2c1 [Example 47] | 10 to 100 nM |
| COCc1cnc2c(C(=O)Nc3cnccc3N3CCC[C@H](N)C3)c(N)sc2c1 [Example 34] | 100 to 1000 nM |
| C[C@@H]1C[C@H](N)CN(c2ccncc2NC(=O)c2c(N)oc3cc(-c4cncnc4)cnc23)C1 [Example 112] | 10 to 100 nM |
| Cc1cnc2c(C(=O)Nc3cnccc3N3C[C@H](C)C[C@H](N)C3)c(N)oc2c1 [Example 116] | 10 to 100 nM |
| Cc1ccc2sc(N)c(C(=O)Nc3cnn(C)c3N3CCCC(N)CC3)c2n1 (stereo not shown) [Example 43] | > 1000 nM |
| Cc1cncc(NC(=O)c2c(N)oc3cccnc23)c1N1C[C@@H](N)[C@H](O)[C@@H](C)C1 [Example 76] | 100 to 1000 nM |
| COC1CCN(Cc2cnc3c(C(=O)Nc4cnccc4N4C[C@@H](N)C[C@@H](C(F)(F)F)C4)c(N)oc3c2)CC1 [Example 107] | 10 to 100 nM |
| Nc1oc2cc(-c3cncnc3)cnc2c1C(=O)Nc1cnccc1N1C[C@@H](N)C[C@@H](C(F)(F)F)C1 [Example 111] | 10 to 100 nM |
| CC(C)c1cnc2c(C(=O)Nc3cnccc3N3C[C@@H](N)[C@H](O)[C@@H](C)C3)c(N)sc2c1 [Example 139] | ≤ 10 nM |
| Nc1oc2cc(C3CCOCC3)cnc2c1C(=O)Nc1cnsc1N1C[C@@H](N)C[C@@H](C(F)(F)F)C1 [Example 91] | 10 to 100 nM |
| Cc1cncc(NC(=O)c2c(N)oc3cc(C(F)(F)F)cnc23)c1N1C[C@@H](N)[C@H](O)[C@@H](C)C1 [Example 79] | 10 to 100 nM |
| Cc1cncc(NC(=O)c2c(N)oc3cc(Cl)cnc23)c1N1C[C@@H](N)[C@H](O)[C@@H](C)C1 [Example 78] | 10 to 100 nM |
| C[C@H]1CN(c2ccncc2NC(=O)c2c(N)oc3cc(C(F)(F)F)cnc23)C[C@@H](N)[C@@H]1O [Example 68] | 10 to 100 nM |
| Nc1sc2cccnc2c1C(=O)Nc1cnccc1N1CCCNCC1 [Example 8] | > 2000 nM |
| Nc1oc2cc(CN3CC(O)C3)cnc2c1C(=O)Nc1cnccc1N1C[C@@H](N)C[C@@H](C(F)(F)F)C1 [Example 101] | 10 to 100 nM |
| Cn1ncc(NC(=O)c2c(N)sc3ccc(Cl)nc23)c1N1CCCC(N)CC1 (stereo not shown) [Example 39] | 100 to 1000 nM |
| Nc1oc2cc(Br)cnc2c1C(=O)Nc1cnccc1N1CCC[C@H](N)C1 [Example 54] | 10 to 100 nM |
| Nc1oc2cc(C3CCOC3)cnc2c1C(=O)Nc1cnccc1N1C[C@@H](N)C[C@@H](C(F)(F)F)C1 (stereo partly shown) [Example 123] | ≤ 10 nM |
| Cn1ncc(NC(=O)c2c(N)sc3cc(-c4c(F)cccc4F)cnc23)c1N1CCCC(N)CC1 (stereo not shown) [Example 27] | 10 to 100 nM |
| CN1CC(c2cnc3c(C(=O)Nc4cnccc4N4CCC[C@H](N)C4)c(N)sc3c2)C1 [Example 31] | 100 to 1000 nM |
| CCCc1cnc2c(C(=O)Nc3cnccc3N3C[C@@H](N)C[C@@H](C(F)(F)F)C3)c(N)oc2c1 [Example 69] | ≤ 10 nM |
| CCc1cnc2c(C(=O)Nc3cnccc3N3C[C@@H](N)C[C@@H](C(F)(F)F)C3)c(N)oc2c1 [Example 118] | ≤ 10 nM |
